- System: MOLT-4 leukemia
- experiment: NCI-60 one-dose screen, 48 h (100 = growth as untreated, 0 = no growth, -100 = all killed)
- condition_parameters: 10 µM unless noted
The panel holds about 83,000 compounds, 20% with a hit somewhere; the sample as a whole holds those more often.
readout_type: growth (%)
Answers are plain numbers, in %.

Example entries begin here.
Fc1ccc(N/N=C/c2ccc(-n3cccn3)cc2)cc1 89
O=C1c2ccccc2C(=O)c2c1oc1c2c(=O)[nH]c2ccc(Cl)cc21 18.4
CCOCCc1c(O)nc(SC)[nH]c1=O 116
COC(=O)/C=C1\SC(=Nc2ccc(C(F)(F)F)cc2)N(CCc2c[nH]c3ccccc23)C1=O -11.4
CCCCc1n(Cc2ccc3ccccc3c2)c2ccccc2[n+]1Cc1ccc2ccccc2c1 -60.9

Please report growth for every entry that follows.
1. Nc1c(C(=O)Nc2ccccc2Cl)sc2nc3c(cc12)CN(Cc1ccccc1)CC3
2. Cc1nccc2c3ccc(OCc4cn(-c5ccc(Br)cc5)nn4)cc3n(CC(C)C)c12

Result:
1: 89.6; 2: 2.93

Please report growth for every entry that follows.
1. COc1ccc(OCC(=O)OC(C)C)cc1
2. Cc1c(Cl)cccc1NC(=O)c1sc2nc3c(cc2c1N)COCC3
3. Nc1c(C(=O)Nc2ccccn2)sc2nc3c(cc12)CCCCC3
4. CSc1nc(-c2ccco2)c2c(N)[nH]nc2n1

Result:
1: 91.1; 2: 27.5; 3: 15.5; 4: 82.7
